ASSAY TEXT: folding stability dG unfold from chymotrypsin proteolysis; higher = more stable
Note to self: values exactly at 2 kcal/mol are TRUE. So folding stability dG unfold at or above 2 kcal/mol is TRUE, below is FALSE.

| SEQUENCE | ASSIGNED CATEGORY |
| --- | --- |
| SAGGSAMPKFYLDENGNPVYELPEEPTINTPLKIGIFDEENNPAIEIEIPGSTPLEEIIQKIKDAASAGGSA [r15_309_TrMRF] | FALSE |

Could you please find out whether SAGGSAGGSAGKIYIVKLPNETIEIEFEGTEEEAIDFAIKELEKLFPKPIPKDDIIILGGSAGGSAGGSAGG [r11_1028_TrMRF] has folding stability dG unfold that meets 2 kcal/mol or exceeds it?
FALSE

Thanks! And SAGGSAGGSGSSTSANAGGIVTSSSTVPLPPDTRPVSVSTSTPSSKPVKTTVLPDKTVTTPLGSAGGSAGGS [r12_994_JUSTAS] ?
FALSE

Thanks! And SAGGSAGGKIKVEYNPENNMYRVTIKLPGGKIKIYIPPGQTEEQGEKNVKHMAKELLKKNGIKISAGGSAGG [r6_679_TrROS] ?
FALSE

Thanks! And SPEIKIEVFKNEDGEEIFIKIEVPPGWRIRIIYNGKEIEEIEVDGYRIRFEEVDGKLRIEVEPLPPGEKPSA [r9_221_TrROS_Hall] ?
TRUE

Thanks! And SAGGSNPNMFRLKVEIEPYEYRDPDGQPKARVWKIDIEMEPGMPPNMAKNIASNFQNRGLPVKIEPSAGGSA [r2_456_TrROS] ?
FALSE

Thanks! And SAGGMKIKLKNGKVIEIKKKPGYIEIKIIDKKTKKVYTYTFKSKDGKISLEDLAKKLAELPNIKEIIPSAGG [r13_579_TrROS_Hall] ?
TRUE

Thanks! And SAGGSAGGMILLETEEGEPKAVILFELRDPLFGGEIPLEFLEELAEEIKEKFPEIKHIELIGLPSAGGSAGG [r6_793_TrMRF] ?
FALSE

Thanks! And SAGGSAGGNGPPDIKIKIEILEVHPGHRDPDGKYYFRVRVEIEYPNKPVKVDFPMPADDAKDLISAGGSAGG [r6_724_TrROS] ?
TRUE

Thanks! And SAGGGMKTSKVSTSTTTTTVPGTGAPVTVEVTSTTTTFGPNGPAVVTTTSLTYDEAGTPTTTTTTTLSAGGS [r16_200_JUSTAS] ?
FALSE

Thanks! And SAGGSMVSEEEIKEIVEKTAAELPEDAVEPVTVTIELPNPDGTTTVLTITITRSPTSISYTVSSSPAASAGG [r19_220_JUSTAS] ?
TRUE

Thanks! And SDNFQPDMTFPVTEIGDDKVTMKYNGKPYYIPTSKITSPNVTVKITDGTVSEVSSPSPSPLPPENIKKLSSA [r9_842_JUSTAS] ?
FALSE

Thanks! And PISAEEAVDYAKHLAERLLKENPPGQEEVEIEFQSPNGWTVKIEIDPNNRKIDVEVYPRNGEPIAKAKIKVS [r1_370_TrROS] ?
FALSE

Thanks! And SAGGSAGGEYELLTFTLEFEVPPEVEHVEFEAELEDFDEILEVRARPDPETGTVRVEIVARARPSAGGSAGG [r6_712_TrMRF] ?
TRUE
